# Test system: MCF7
# TEST DESCRIPTION: Antiproliferative activity against human MCF7 cells at 100 uM after 48 hrs
# Type: functional
Classification field: satisfied = Activity at or over 80%; not satisfied = Activity under 80%.

MOLECULAR STRING: N#Cc1c2ccccc2c2nnc3cc(C(F)(F)F)ccc3n12
ASSIGNED LABEL: not satisfied
--
MOLECULAR STRING: N#Cc1c2ccccc2c2nnc3cc(Cl)ccc3n12
ASSIGNED LABEL: satisfied

Input line: Given the entry "N#Cc1c2ccccc2c2nnc3ccc(C(F)(F)F)cc3n12" , answer whether its Activity meets or surpasses 80%.
Output line: satisfied

Input line: Another molecule: "N#Cc1c2ccccc2c2nnc3ccccc3n12"
Output line: not satisfied

Input line: Another molecule: "Cc1cccc2nnc3c4ccccc4c(C#N)n3c12"
Output line: not satisfied
